System: Wnt activity (Sp5-Luc reporter, SW480 colon carcinoma cells)
protocolDescription: Screening assay for Wnt activity: Sp5-Luc reporter gene assay in SW480 cells
Type: cell-based
statedConditions: Homo sapiens; SW480 Sp5-Luc reporter, overnight incubation
Exercise: for every item that follows, state its recorded EC50.
Answers are plain numbers, in nM.

CCC(=O)Nc1cncc(-c2ccc3[nH]nc(-c4cc5c(-c6cc(F)cc(CNS(C)(=O)=O)c6)cncc5[nH]4)c3c2)c1 [Compound 477]
244

Items follow; give EC50 for each.
1. CCCC(=O)Nc1cncc(-c2ccc3[nH]nc(-c4cc5c(-c6cccc(F)c6)cncc5[nH]4)c3c2)c1 [Compound 17]
2. O=C(Nc1cncc(-c2ccc3[nH]nc(-c4cc5c(-c6ccccc6F)cncc5[nH]4)c3c2)c1)C1CCCC1 [Compound 78]
3. O=C(Nc1cncc(-c2ccc3[nH]nc(-c4cc5c(-c6ccncc6)cncc5[nH]4)c3c2)c1)C1CC1 [Compound 132]

1. 200
2. 1240
3. 395

Items follow; give EC50 for each.
1. c1cncc(-c2ccc3[nH]nc(-c4cc5c(-c6cccnc6)cncc5[nH]4)c3c2)c1 [Compound 88]
2. CC(C)(C)C(=O)Nc1cncc(-c2ccc3[nH]nc(-c4cc5c(-c6ccc(F)cc6)cncc5[nH]4)c3c2)c1 [Compound 36]

1: 310; 2: 680

----------
System: Wnt activity (Sp5-Luc reporter, SW480 colon carcinoma cells)
protocolDescription: Screening assay for Wnt activity: Sp5-Luc reporter gene assay in SW480 cells
Type: cell-based
statedConditions: Homo sapiens; SW480 Sp5-Luc reporter, overnight incubation
readoutLabel: EC50

O=C(Nc1cncc(-c2ccc3[nH]nc(-c4cc5c(-c6cccnc6)cncc5[nH]4)c3c2)c1)c1ccccc1
> 10 µM

Items follow; give EC50 for each.
1. CN1CCN(c2cncc3[nH]c(-c4n[nH]c5ccc(-c6cncc(NC(=O)CC7CCNCC7)c6)cc45)cc23)CC1
2. c1cncc(-c2cncc3[nH]c(-c4n[nH]c5ccc(-c6cncnc6)cc45)cc23)c1

> 10 µM
> 10 µM

----------
System: SW480 colon cancer cells
protocolDescription: Cell viability assay (CellTiter-Blue) in SW480 colon cancer cells
Format: cell-based
statedConditions: Homo sapiens, 96 h; SW480 cell viability, four days incubation
Description: Representative compounds were screened using the following assay procedure to assess the effect on cell viability as described below. Approximately 2×10^3 SW480 colon cancer cells were seeded into each well and allowed to incubate in the presence or absence of compound for four days at 37° C./5% CO2. […] After incubation, 20 μL of CellTiter-Blue (Promega) was added to each well allowed to incubate for approximately 3 hours. […] This measured fluorescence was used as a readout for cell viability.
Exercise: for every item that follows, state its recorded EC50.
Hey, just the number and the unit after it is fine.

Observe how each entry below is paired with its result.
COc1cncc(-c2ccc3[nH]nc(-c4cc5c(-c6ccsc6)cncc5[nH]4)c3c2)c1
510 nM
COc1cncc(-c2ccc3[nH]nc(-c4cc5c(-c6ccoc6)cncc5[nH]4)c3c2)c1
1100 nM

Would you kindly look at the next entry?
Answer with the recorded EC50 of `CN(C)CCOc1cncc(-c2ccc3[nH]nc(-c4cc5c(-c6ccc(F)cc6)cncc5[nH]4)c3c2)c1` only.
976 nM

----------
Exercise: for every item that follows, state its recorded EC50.
Tested on: Primary human fibroblasts derived from IPF patients (LL29 cells)
protocolDescription: Inhibition of the fibrotic process: αSMA staining in TGF-β1-treated LL29 fibroblasts
Format: cell-based
statedConditions: Fibroblast, 96 h, LL29 cells, TGF-β1 20 ng/mL, 4 days, % αSMA-positive cells
Description: Representative compounds were screened using primary human fibroblasts (derived from IFF patients) treated with TGF-β1 to determine their ability to inhibit the fibrotic process. […]
One number for each entry, in nM.

Observe how each entry below is paired with its result.
NC1CN(c2cncc(-c3ccc4[nH]nc(-c5cc6c(N7CCCCC7)cncc6[nH]5)c4c3)n2)C1
486
c1ncc(-c2ccc3[nH]nc(-c4cc5c(N6CCCCC6)cncc5[nH]4)c3c2)cc1OC1CCCCC1
647
Fc1cccc(-c2cncc3[nH]c(-c4n[nH]c5ccc(-c6cncc(CN7CCC(F)(F)C7)c6)cc45)cc23)c1
322
c1cc2cc(-c3n[nH]c4ccc(-c5cncc(CNCC6CCCC6)c5)cc34)[nH]c2cn1
1390
O=C(Nc1cncc(-c2ccc3[nH]nc(-c4cc5c(-c6ccccc6F)cncc5[nH]4)c3c2)c1)C1CCCC1
1410
c1cc(-c2cncc3[nH]c(-c4n[nH]c5ccc(-c6cncc(CN7CCCCC7)c6)cc45)cc23)co1
1390
c1cc2cc(-c3n[nH]c4ccc(-c5cncc(OCCN6CCCC6)c5)cc34)[nH]c2cn1
925
Fc1ccccc1-c1cncc2[nH]c(-c3n[nH]c4ccc(-c5cncc(CN6CCCCC6)c5)cc34)cc12
2310

Items follow; give EC50 for each.
1. Fc1ccccc1-c1cncc2[nH]c(-c3n[nH]c4ccc(-c5cncc(OC6CCNCC6)c5)cc34)cc12
2. CN1CCN(c2cncc3[nH]c(-c4n[nH]c5ccc(-c6cncc(NC(=O)CC(C)(C)C)c6)cc45)cc23)CC1
3. Fc1cccc(-c2cncc3[nH]c(-c4n[nH]c5ccc(-c6cccnc6)cc45)cc23)c1
4. c1ccc(CNCc2cncc(-c3ccc4[nH]nc(-c5cc6c(-c7cccs7)cncc6[nH]5)c4c3)c2)cc1
5. c1ncc(-c2ccc3[nH]nc(-c4cc5c(N6CCCCC6)cncc5[nH]4)c3c2)cn1
6. c1cncc(-c2cncc3[nH]c(-c4n[nH]c5ccc(-c6cncc(CN7CCCCC7)c6)cc45)cc23)c1
7. c1ncc(-c2ccc3[nH]nc(-c4cc5c(N6CCCCC6)cncc5[nH]4)c3c2)cc1CN1CCCC1
8. CCCC(=O)Nc1cncc(-c2ccc3[nH]nc(-c4cc5c(-c6ccc(F)cc6)cncc5[nH]4)c3c2)c1

2760
2650
1630
187
1080
4040
2420
290

Answer with the recorded EC50 of `CS(=O)(=O)NCc1cc(F)cc(-c2cncc3[nH]c(-c4n[nH]c5ccc(-c6cncc(NC(=O)C7CCC7)c6)cc45)cc23)c1` only.
5430

----------
Tested on: Primary human fibroblasts derived from IPF patients (LL29 cells)
protocolDescription: Inhibition of the fibrotic process: αSMA staining in TGF-β1-treated LL29 fibroblasts
Type: cell-based
statedConditions: Fibroblast, 96 h, LL29 cells, TGF-β1 20 ng/mL, 4 days, % αSMA-positive cells
Exercise: for every item that follows, state its recorded EC50.

O=C(Nc1cncc(-c2ccc3[nH]nc(-c4cc5c(-c6ccncc6)cncc5[nH]4)c3c2)c1)C1CC1
> 10000 nM
CCCC(=O)Nc1cncc(-c2ccc3[nH]nc(-c4cc5c(-c6cccc(F)c6)cncc5[nH]4)c3c2)c1
254 nM

Items follow; give EC50 for each.
1. CC(C)(C)CC(=O)Nc1cncc(-c2ccc3[nH]nc(-c4cc5c(-c6ccccc6F)cncc5[nH]4)c3c2)c1
2. O=C(Cc1ccccc1)Nc1cncc(-c2ccc3[nH]nc(-c4cc5c(-c6ccncc6)cncc5[nH]4)c3c2)c1
3. CCNCc1cncc(-c2ccc3[nH]nc(-c4cc5c(-c6ccccc6F)cncc5[nH]4)c3c2)c1
4. CN(C)Cc1cncc(-c2cc3c(-c4cc5c(-c6cccc(F)c6)cncc5[nH]4)n[nH]c3cc2F)c1

593 nM
1470 nM
9730 nM
920 nM
